assayExplanation: Human HepG2 cell viability assay in 384 well format
Type: toxicity, cell-based
Set-up: dose 125 nL, time 70.5 hour; concentration not given beside the values
conditions: HepG2 cells, read-out: Inhibition
experimentalEndpoint: cytotoxicity at 70.5 h (%)
Supply the numeric figure in %, leaving out any unit text.

Known cytotoxicity at 70.5 h results, listed for orientation:
                                   compound  measurednumber
0  CCCc1nnc2sc(CC3CN(Cc4ccccc4)CCO3)nn12 (configuration not stated)           -8.68
1      Cc1nc(NC(=O)NCc2nc3cccc(C)c3n2C)oc1C            13.5
2  NC(=O)Cn1c(SCc2noc(-c3ccsc3)n2)nnc1C1CC1           -1.96
3    Cc1nn(CC(C)C)cc1S(=O)(=O)N(C)Cc1nonc1C           0.131
4         Cc1cc2c(=O)n(CCSc3ncn[nH]3)cnc2s1           -7.44

Exercise: Which cytotoxicity at 70.5 h reading was recorded for the compound `Cc1csc(C(C)(C)NCCCS(C)(=O)=O)n1` ?
Solution: -2

Exercise: Which cytotoxicity at 70.5 h reading was recorded for the compound `Cc1nnc(C2CCN(C(=O)c3ccsc3)CC2)s1` ?
Solution: -5.71

Exercise: Which cytotoxicity at 70.5 h reading was recorded for the compound CC(C)C(C(=O)N1CCN(c2nccs2)CC1)n1cncn1 (configuration not stated) ?
Solution: 0.606

Exercise: Which cytotoxicity at 70.5 h reading was recorded for the compound `CC(C)(C)NC(=O)N1CCN(Cc2cccnc2)CC1` ?
Solution: -3.39

Exercise: Which cytotoxicity at 70.5 h reading was recorded for the compound `CCCn1ncc(C(=O)N(Cc2cccnc2)C[C@@H]2CCC(=O)N2)c1C` ?
Solution: -5.8

Exercise: Which cytotoxicity at 70.5 h reading was recorded for the compound CC(NC(=O)N1CCN(CCc2ccccc2)CC1)c1nncn1C (configuration not stated) ?
Solution: -11

Exercise: Which cytotoxicity at 70.5 h reading was recorded for the compound Cc1cccc(Cc2cc(C)nc(C3CCCNC3)c2)c1 (configuration not stated) ?
Solution: 2.77

Exercise: Which cytotoxicity at 70.5 h reading was recorded for the compound `CCc1nc(N2CCN(CCOC)CC2)c2cnn(C)c2n1` ?
Solution: -11.9

Exercise: Which cytotoxicity at 70.5 h reading was recorded for the compound CNC(=O)CS(=O)(=O)NC1CCC(C)CC1 (configuration not stated) ?
Solution: -15.8

Exercise: Which cytotoxicity at 70.5 h reading was recorded for the compound `N#Cc1cccc(CNC(=O)Nc2cccnc2N2CCCC2)c1` ?
Solution: -1.72

Exercise: Which cytotoxicity at 70.5 h reading was recorded for the compound CC(C#N)CNC(=O)Nc1ccc(Br)cc1 (configuration not stated) ?
Solution: 2.54

Exercise: Which cytotoxicity at 70.5 h reading was recorded for the compound CC1(c2ccc(Br)cc2)CC(=O)N(CCC(N)=O)C1=O (configuration not stated) ?
Solution: -6.18

Exercise: Which cytotoxicity at 70.5 h reading was recorded for the compound Cn1c(C(N)=O)cc2c1CN(C(=O)C1CC(=O)N(C(C)(C)C)C1)CC2 (configuration not stated) ?
Solution: -2.03

Exercise: Which cytotoxicity at 70.5 h reading was recorded for the compound `Cc1ccccc1S(=O)(=O)NC(=O)C1(c2ccccc2)CCC1` ?
Solution: -9.55
